Tested on: CAKI-1
Test: NCI tumour cell line growth inhibition, 48 h
Calls of active or inactive are those of the source. No stated cut-off is given here; in the data, active = GI50 up to about 1.1 µM and inactive = higher.
Value kind: GI50

// fetch CAKI-1 GI50 for CNC(C)Cc1ccc(O)cc1 (stereo unspecified)
> 100 µM (inactive)

// fetch CAKI-1 GI50 for NCCN1C(=O)c2ccccc2C1c1ccc(Cl)cc1 (stereo unspecified)
> 100 µM (inactive)

// fetch CAKI-1 GI50 for O=C1Nc2ccc(Br)cc2/C1=N/Nc1ccc([N+](=O)[O-])cc1[N+](=O)[O-]
13.9 µM (inactive)

// fetch CAKI-1 GI50 for C=C1C(=O)OC2/C=C(/C)C3(O)OC(C)(CC(OC(=O)C(C)C)C12)CC3OC(C)=O (stereo unspecified)
2.48 µM (inactive)

// fetch CAKI-1 GI50 for O=C1C=C(Nc2ccccc2C(=O)CC(=O)C(=O)Nc2ccc(Cl)c(Cl)c2)c2ccccc2C1=O
87.3 µM (inactive)

// fetch CAKI-1 GI50 for CCCCCCCCSC1=C(Cl)C(=O)C(OC)=C(OC)C1=O
12.3 µM (inactive)

* * *

In this section we review reported GI50 values for a set of compounds.
Tested on: A498
Assay: NCI tumour cell line growth inhibition, 48 h
Calls of active or inactive are those of the source. No stated cut-off is given here; in the data, active = GI50 up to about 1.1 µM and inactive = higher.

Some compounds with known GI50 results, for comparison:
{"columns": ["Compound", "GI50"],
 "data": [
  ["Cc1sc2nc(-c3cccc([N+](=O)[O-])c3)c(/C=N/N=C(N)N)n2c1C", "1.55 µM (inactive)"],
  ["COc1cc2c(c3c1c(=O)c1ccccc1n3C)C=CC1(CCCC1)O2", "18 µM (inactive)"],
  ["COc1cc2c(cc1OC)CC1c3cc(OC)c(OC)cc3CCN1CC2 (stereo unspecified)", "> 100 µM (inactive)"],
  ["O=[N+]([O-])C(/C=C(\\Cl)[N+](=O)[O-])=C(N1CCOCC1)N1CCOCC1", "27 µM (inactive)"],
  ["O=C1CCCn2c(nc3ccccc32)N1", "> 100 µM (inactive)"],
  ["COc1nn(Cc2ccccn2)c2ccc([N+](=O)[O-])cc12", "30.3 µM (inactive)"]
]}

Name the recorded GI50 for Cc1ccc2c(c1)Nc1ccccc1P2(=O)O .
> 100 µM (inactive)

* * *

Test system: MOLT-4
Assay: NCI tumour cell line growth inhibition, 48 h
The source made the active and inactive calls. Rule as the data show it: active = GI50 up to about 1.1 µM and inactive = higher.
In this section we review reported GI50 values for a set of molecules.

{"columns": ["Molecule", "GI50"],
 "data": [
  ["Cc1cc(S(=O)(=O)NC2=Nc3ccc(Cl)cc3C(c3ccccc3)N2)c(S)cc1Cl (configuration not stated)", "62.5 µM (inactive)"],
  ["N#Cc1cccc(/C=N/C23CC4CC(CC(C4)C2)C3)c1", "99.1 µM (inactive)"],
  ["COC(OC)c1cccc2c1C(=O)CCC1(O)c3ccccc3C1C2 (configuration not stated)", "65.5 µM (inactive)"]
]}

Name the recorded GI50 for C=C(CC[C@@H](C(=O)O)[C@H]1[C@H](O)C[C@@]2(C)C3=CC[C@@H](C(=C)C)[C@](C)(CCC(=O)O)C3=CC[C@]12C)C(C)C .
22.1 µM (inactive)

Name the recorded GI50 for Cn1c(=O)cc(NNc2ccc(Cl)c(Cl)c2)[nH]c1=O .
14.5 µM (inactive)
